targetDesc: human GluN1/GluN2B NMDA receptors (Homo sapiens, UniProt Q13224)
Construct: expressed in transfected cells
Sequence (Q13224 27-1484, other chains not shown): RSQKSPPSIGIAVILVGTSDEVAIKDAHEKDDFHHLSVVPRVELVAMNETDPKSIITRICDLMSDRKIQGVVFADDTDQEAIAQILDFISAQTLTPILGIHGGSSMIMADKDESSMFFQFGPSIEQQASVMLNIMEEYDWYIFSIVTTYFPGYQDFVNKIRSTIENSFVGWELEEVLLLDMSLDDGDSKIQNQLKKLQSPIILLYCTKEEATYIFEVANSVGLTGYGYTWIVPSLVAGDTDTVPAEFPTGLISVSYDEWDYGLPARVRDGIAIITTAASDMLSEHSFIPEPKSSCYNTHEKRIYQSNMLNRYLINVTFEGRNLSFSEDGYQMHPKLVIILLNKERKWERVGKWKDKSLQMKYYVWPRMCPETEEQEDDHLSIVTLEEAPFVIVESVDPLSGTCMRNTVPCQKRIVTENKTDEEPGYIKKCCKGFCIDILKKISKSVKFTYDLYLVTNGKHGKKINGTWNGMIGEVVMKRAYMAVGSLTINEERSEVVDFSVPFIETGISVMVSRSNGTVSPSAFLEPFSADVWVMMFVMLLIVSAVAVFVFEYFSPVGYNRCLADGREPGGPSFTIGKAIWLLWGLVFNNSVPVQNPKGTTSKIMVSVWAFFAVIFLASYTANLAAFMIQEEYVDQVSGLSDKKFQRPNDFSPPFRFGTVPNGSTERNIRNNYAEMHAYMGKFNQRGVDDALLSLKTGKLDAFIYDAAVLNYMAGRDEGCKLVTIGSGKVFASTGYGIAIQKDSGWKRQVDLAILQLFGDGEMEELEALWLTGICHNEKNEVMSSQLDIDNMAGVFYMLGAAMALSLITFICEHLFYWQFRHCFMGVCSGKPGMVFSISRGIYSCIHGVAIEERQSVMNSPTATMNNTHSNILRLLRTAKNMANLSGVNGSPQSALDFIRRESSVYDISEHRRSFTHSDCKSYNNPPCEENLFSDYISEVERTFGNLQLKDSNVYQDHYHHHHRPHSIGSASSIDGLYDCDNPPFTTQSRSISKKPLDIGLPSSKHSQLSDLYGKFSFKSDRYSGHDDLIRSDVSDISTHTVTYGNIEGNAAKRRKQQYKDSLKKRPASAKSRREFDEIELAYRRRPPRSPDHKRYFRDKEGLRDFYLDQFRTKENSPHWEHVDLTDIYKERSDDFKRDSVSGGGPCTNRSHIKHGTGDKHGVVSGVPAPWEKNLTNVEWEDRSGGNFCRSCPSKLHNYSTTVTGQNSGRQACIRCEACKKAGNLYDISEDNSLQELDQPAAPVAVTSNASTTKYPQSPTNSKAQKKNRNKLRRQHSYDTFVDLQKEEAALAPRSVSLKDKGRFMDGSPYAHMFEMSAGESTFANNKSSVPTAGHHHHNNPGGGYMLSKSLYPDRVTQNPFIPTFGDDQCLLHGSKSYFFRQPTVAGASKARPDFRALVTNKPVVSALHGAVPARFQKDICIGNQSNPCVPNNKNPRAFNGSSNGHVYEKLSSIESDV
protocol: Calcium flux (FLIPR) assay on cloned human GluN1/GluN2B ion channels expressed in mammalian cells, standard assay
Type: cell-based
conditionInfo: glutamate ~EC40, 10 μM glycine, stable cell line with Tet-On induced expression
Procedure: NMDA receptors are ion channels that are highly permeable to Ca^2+ ions, rendering it possible to monitor NMDA receptor function using cell-based calcium flux assay. In this assay, co-agonists glutamate and glycine are added to cells heterologously expressing human GluN1/GluN2B NMDA receptors to initiate cellular Ca^2+ influx. The time course of the changes in intracellular calcium is measured using a fluorescent dye and a FLIPR (Fluorometric Imaging Plate Reader) device. […]
In plain terms, low IC50, meaning strictly below 100 nM, gives MET, and everything else gives NOT MET.

{"smilesRepresentation": "Cc1ncc(-c2cccc(C(C)(F)F)c2)nc1CN1CCCOC1=O", "className": "NOT MET"}
{"smilesRepresentation": "C[C@@H]1CN(Cc2cncc(-c3ccc(F)c(C(F)F)c3)n2)C(=O)O1", "className": "MET"}
{"smilesRepresentation": "Cc1ncc(-c2ccc(F)c(OC(F)F)c2)nc1CN1C[C@H](C)OC1=O", "className": "MET"}

Is it true that IC50 reported for `CC1(C)CN(Cc2cncc(-c3ccc(F)c(OC(F)F)c3)n2)C(=O)O1` is less than 100 nM? NOT MET

Another molecule to check: `Cc1ncc(-c2ccc(F)c(C(F)F)c2)nc1CN1C[C@H](C)OC1=O` MET

Please give the result for `CC1(C)CN(Cc2cncc(-c3ccc(F)c(C(F)F)c3)n2)C(=O)O1` too. NOT MET

Repeat for the following molecule: `C[C@@H]1COC(=O)N1Cc1cncc(-c2ccc(F)c(C(C)(F)F)c2)n1` NOT MET

How about this molecule: `CC(F)(F)c1cccc(-c2cncc(CN3CCC4(CC4)OC3=O)n2)c1` NOT MET

What do we get for `Cc1ncc(-c2ccc(F)c(OC(F)F)c2)nc1CN1C[C@@H](C)OC1=O` ? MET
